System: E. coli J53 Alone
assay.summary: MIC determination, isogenic E. coli strains
Type: cell-based
experimental.parameters: J53 Alone, Table 4-2; CAMH broth, 20 μM Apo-Transferrin, 37° C., 18 hours
Procedure: Sterile technique was used throughout these experiments. Suspensions of organisms were removed from storage (−80° C.) and partially thawed. […] For each organism the MIC was determined by identifying the transparent well with the lowest test compound concentration. […]
Reported Mimimum Inhibitory Concentrations, J53 Alone values for a set of molecules
property: Mimimum Inhibitory Concentrations, J53 Alone (microgram/mL)

[
  {
    "molecule": "CC[N+]1(Cc2ccc(C=CC3=C(C(=O)O)N4C(=O)[C@@H](NC(=O)/C(=N\\OC(C)(C)C(=O)O)c5csc(N)n5)[C@H]4SC3)cc2)CCc2cc(O)c(O)cc2C1 (mixture of isomers) [Compound 423]",
    "reported.value": 0.25
  },
  {
    "molecule": "CO/N=C(\\C(=O)N[C@@H]1C(=O)N2C(C(=O)O)=C(C=Cc3ccc(C[n+]4ccc(OC)c(OC)c4)cc3[N+](=O)[O-])CS[C@H]12)c1csc(N)n1 (mixture of isomers) [Compound 392]",
    "reported.value": 64
  },
  {
    "molecule": "CC(C)(O/N=C(\\C(=O)N[C@@H]1C(=O)N2C(C(=O)O)=C(C=Cc3ccc(C[N+]4(C)Cc5cc(O)c(O)cc5C4)cc3)CS[C@H]12)c1csc(N)n1)C(=O)O (mixture of isomers) [Compound 424]",
    "reported.value": 0.25
  },
  {
    "molecule": "CC(C)(O/N=C(\\C(=O)N[C@@H]1C(=O)N2C(C(=O)O)=C(C=Cc3ccc(C[N+]4(C)CCc5ccc(O)c(O)c5C4)cc3)CS[C@H]12)c1csc(N)n1)C(=O)O (mixture of isomers) [Compound 442]",
    "reported.value": 0.25
  },
  {
    "molecule": "CC(C)(O/N=C(\\C(=O)N[C@@H]1C(=O)N2C(C(=O)O)=C(C=Cc3ccc(C[N+](C)(C)CCc4ccc(O)c(O)c4)cc3)CS[C@H]12)c1csc(N)n1)C(=O)O (mixture of isomers) [Compound 440]",
    "reported.value": 0.25
  },
  {
    "molecule": "CC(C)(O/N=C(\\C(=O)N[C@@H]1C(=O)N2C(C(=O)O)=C(C=Cc3ccc(C[N+]4(C5CCC5)CCc5ccc(O)c(O)c5C4)cc3)CS[C@H]12)c1csc(N)n1)C(=O)O (mixture of isomers) [Compound 444]",
    "reported.value": 0.5
  },
  {
    "molecule": "CC(C)(O/N=C(\\C(=O)N[C@@H]1C(=O)N2C(C(=O)O)=C(C=Cc3ccc(C[N+](C)(C)Cc4ccc(O)c(O)c4)cc3)CS[C@H]12)c1csc(N)n1)C(=O)O (mixture of isomers) [Compound 426]",
    "reported.value": 1
  },
  {
    "molecule": "CC(C)(O/N=C(\\C(=O)N[C@@H]1C(=O)N2C(C(=O)O)=C(C=Cc3ccc(C[n+]4cccc(-c5ccc(O)c(O)c5)c4)cc3)CS[C@H]12)c1csc(N)n1)C(=O)O (mixture of isomers) [Compound 413]",
    "reported.value": 0.25
  },
  {
    "molecule": "Cc1c[n+](Cc2ccc(C=CC3=C(C(=O)O)N4C(=O)[C@@H](NC(=O)/C(=N\\OC(C)(C)C(=O)O)c5csc(N)n5)[C@H]4SC3)cc2)ccc1-c1ccc(O)c(O)c1 (mixture of isomers) [Compound 422]",
    "reported.value": 0.25
  },
  {
    "molecule": "Cn1c[n+](Cc2ccc(C=CC3=C(C(=O)O)N4C(=O)[C@@H](NC(=O)/C(=N\\OC(C)(C)C(=O)O)c5csc(N)n5)[C@H]4SC3)cc2)c2cc(O)c(O)cc21 (mixture of isomers) [Compound 415]",
    "reported.value": 0.5
  }
]
